Biological target: P. falciparum apicoplast DNA polymerase (Pf-apPOL) (Plasmodium falciparum, UniProt Q8ILY1)
Sequence (Q8ILY1 entry or part of it): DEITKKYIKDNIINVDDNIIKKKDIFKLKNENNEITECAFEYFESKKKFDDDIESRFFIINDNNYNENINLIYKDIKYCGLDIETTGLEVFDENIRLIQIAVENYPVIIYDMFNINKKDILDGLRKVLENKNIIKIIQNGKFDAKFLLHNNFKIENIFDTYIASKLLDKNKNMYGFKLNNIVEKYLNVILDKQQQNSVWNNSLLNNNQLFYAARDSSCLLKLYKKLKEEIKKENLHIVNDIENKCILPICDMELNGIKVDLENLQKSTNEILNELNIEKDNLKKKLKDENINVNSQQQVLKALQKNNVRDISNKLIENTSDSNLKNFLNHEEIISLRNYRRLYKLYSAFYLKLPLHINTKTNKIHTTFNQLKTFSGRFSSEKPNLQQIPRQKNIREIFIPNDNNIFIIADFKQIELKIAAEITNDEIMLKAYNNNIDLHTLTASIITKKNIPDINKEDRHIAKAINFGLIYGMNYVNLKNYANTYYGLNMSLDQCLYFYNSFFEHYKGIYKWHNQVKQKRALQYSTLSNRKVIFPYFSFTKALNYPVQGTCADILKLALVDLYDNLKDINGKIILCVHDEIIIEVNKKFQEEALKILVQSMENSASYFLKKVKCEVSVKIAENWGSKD
Assay: Fluorescence-based high-throughput DNA polymerase assay (molecular beacon), primary screen and dose-response;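 as to % inhibition Apol 40': compound concentration given in µM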
Assay type: biochemical
Settings: DRC-2, 40', concentration 10
Here, each record is paired with measured % inhibition Apol 40' data.
Observable: % inhibition Apol 40' (%)

>>> numeric_value("COc1ccc2c(c1)CCc1c-2nc2ccc(Br)cc2c1C(=O)O")
33
>>> numeric_value("CCSc1nnc(NC(=O)Cc2csc(NC(=O)c3cnccn3)n2)s1")
25
>>> numeric_value("CCOC(=O)C(NCc1ccco1)(NC(=O)c1ccco1)C(F)(F)F (stereo not drawn)")
12
>>> numeric_value("CSCCC(C)(O)CNC(=O)C1CC1 (stereo not drawn)")
28
>>> numeric_value("CO/N=C(\\C(=O)N[C@@H]1C(=O)N2C(C(=O)[O-])=C(CSc3nc(=O)c([O-])nn3C)CSC12)c1csc(N)n1.[Na+].[Na+] (stereo partly drawn)")
9
>>> numeric_value("CN(C)C=C1SCc2ccccc2C1=O")
13
>>> numeric_value("CN1CC(=Cc2ccco2)C(=O)C(=Cc2ccco2)C1")
37
>>> numeric_value("O=C(NNC(=O)C(F)(F)Sc1ccccc1)c1ccsc1 [Molecule 68, O=C(C(Sc1ccccc1)(F)F)NNC(=O)c1cscc1]")
19
>>> numeric_value("Cc1nn(CC(=O)NCCSCc2ccco2)c(C)c1Br")
15
>>> numeric_value("Oc1ccc(N=Nc2ccccc2)c(O)c1")
23
>>> numeric_value("CSC(C)C(=O)C=CN(C)C (stereo not drawn)")
21
>>> numeric_value("Cc1ncc(CSc2nc(C(C)(C)C)cs2)c(CO)c1O")
20
>>> numeric_value("O=C(Nc1nnc(-c2ccno2)o1)c1ccc2ncsc2c1")
36
>>> numeric_value("O=C(O)CC1SC(c2ccc3c(c2)OCO3)=NC1=O (stereo not drawn)")
16
>>> numeric_value("CN(C)C=CC(=O)c1ccccn1")
27
>>> numeric_value("COc1ccc(C(=O)Nc2cccc(-c3nc4ncccc4o3)c2)cc1[N+](=O)[O-]")
18
>>> numeric_value("O=C(Nc1nnc(-c2cccs2)o1)c1ccc([N+](=O)[O-])o1")
27
>>> numeric_value("Cn1nc(C(=O)N2CCc3c(nc4cc(-c5ccccc5)[nH]n4c3=O)C2)c2ccccc21")
40
>>> numeric_value("O=[N+]([O-])c1cc2c(cc1CN1CCN(c3cccc(Cl)c3)CC1)OCO2")
18
>>> numeric_value("O=C(Nc1nnc(-c2ccno2)o1)c1ccc2c(c1)OCO2")
14
>>> numeric_value("O=[N+]([O-])c1cc2c(cc1CN1CCCCCC1)OCO2")
22

---

Target: P. falciparum apicoplast DNA polymerase (Pf-apPOL) (Plasmodium falciparum)
Test: Fluorescence-based high-throughput DNA polymerase assay (molecular beacon), primary screen and dose-response
Format: biochemical
Settings: DRC-2, 5', concentration 5
Observable: % inhibition Apo pol 5' (%)

>>> numeric_value("COc1ccc2c(c1)CCc1c-2nc2ccc(Br)cc2c1C(=O)O [KU0059417]")
27
>>> numeric_value("O=C(c1c[nH]c2ncccc12)N1CCCCCC1 [Molecule 51, O=C(c1c[nH]c2c1cccn2)N1CCCCCC1]")
2.7
>>> numeric_value("CN(C)C=C1SCc2ccccc2C1=O [Molecule 77, CN(C=C1SCc2c(C1=O)cccc2)C]")
5.48
